Data origin: ChEMBL document CHEMBL3244023

experiment: Lipophilicy, log P of the compound; format: physicochemical; conditions: octanol/water
The entries below are paired with their reported logP.
Output spec: single numeric token, no unit.

Examples with their reported logP follow.
O=[N+]([O-])c1c(Br)c[n+]([O-])c2ccccc12
1.99
CCCCCCc1ccc2c(c1)c(NO)cc[n+]2[O-]
3.35
O=[N+]([O-])c1ccc2c(c1)c(NO)cc[n+]2[O-]
-0.28
O=[N+]([O-])c1cccc2c1c([N+](=O)[O-])cc[n+]2[O-]
0.95
CCCCc1ccc2c(c1)c([N+](=O)[O-])cc[n+]2[O-]
3.11

The compound listed as CCc1cc([N+](=O)[O-])c2ccccc2[n+]1[O-] shows logP equal to 1.76

====

logP reference
experiment: Lipophilicy, log P of the compound; type: physicochemical; conditions: octanol/water

Example results:
O=[N+]([O-])c1cc[n+]([O-])c2c(F)cccc12
1
O=[N+]([O-])c1c(F)c[n+]([O-])c2ccccc12
1.25
O=[N+]([O-])c1cc[n+]([O-])c2cc(Cl)c(Cl)cc12
2.49
CC(C)(C)c1ccc2c(c1)c([N+](=O)[O-])cc[n+]2[O-]
3.06
CC(C)(C)c1ccc2c(c1)c(NO)cc[n+]2[O-]
2.05
CCc1c(C)c([N+](=O)[O-])c2ccccc2[n+]1[O-]
2.56
CC(C)(C)c1cc([N+](=O)[O-])c2ccccc2[n+]1[O-]
1.07
[O-][n+]1ccc(NO)c2cc(C3CCCCC3)ccc21
2.89
CCCCCCc1ccc2c(c1)c([N+](=O)[O-])cc[n+]2[O-]
3.26
O=[N+]([O-])c1cc[n+]([O-])c2cc(Cl)ccc12
1.75

Noted for O=[N+]([O-])c1ccc2c([N+](=O)[O-])cc[n+]([O-])c2c1 : its logP reads 0.45

Sample O=C(O)c1ccc2c(c1)c([N+](=O)[O-])cc[n+]2[O-] ; logP observed: 0.42

Short answer for COc1c[n+]([O-])c2ccccc2c1[N+](=O)[O-] : logP was 0.43

According to the records, this molecule Cc1c[n+]([O-])c2ccccc2c1[N+](=O)[O-] displays logP of 1.24

Per the record, O=[N+]([O-])c1cc[n+]([O-])c2cccc(Cl)c12 has logP of 1.75

The reported logP of the molecule Cc1ccc2c([N+](=O)[O-])cc[n+]([O-])c2c1 was 1.49

response.value for Cc1cc([N+](=O)[O-])c2ccccc2[n+]1[O-] (field: logP) = 1.25

The recorded logP for entry O=[N+]([O-])c1cc[n+]([O-])c2ccc(C3CCCCC3)cc12 equals 2.8

The molecule listed as O=[N+]([O-])c1c(Cl)c[n+]([O-])c2ccccc12 shows logP equal to 1.33

In plain terms, O=[N+]([O-])c1cc[n+]([O-])c2c([N+](=O)[O-])cccc12 has a documented logP of 0.76

# molecule O=[N+]([O-])c1cc[n+]([O-])c2ccccc12 [4-NITROQUINOLINE-1-OXIDE] ; its logP = 1.01

====

test system: Mus musculus; experiment: Carcinogenicity in mouse assessed as tumor development administered sc in left groin 6 times at 10-day interval; assay type: toxicity, organism-based; conditions: in vivo
ATTRIBUTE_MEASURED: Activity

Use the examples below as a reference point.
CCc1cc([N+](=O)[O-])c2ccccc2[n+]1[O-]
Toxic
O=[N+]([O-])c1cc[n+]([O-])c2ccc(Cl)cc12
Toxic
CCCCCCc1ccc2c(c1)c(NO)cc[n+]2[O-]
Non-toxic
O=[N+]([O-])c1cc[n+]([O-])c2cc(Cl)ccc12
Toxic

Query CCCCCCc1ccc2c(c1)c([N+](=O)[O-])cc[n+]2[O-] yields Activity of Non-toxic

Value of measured Activity for the entry Cc1cc([N+](=O)[O-])c2ccccc2[n+]1[O-] : Toxic

Record Cc1cccc2c([N+](=O)[O-])cc[n+]([O-])c12 , field Activity: Toxic

Activity reading for O=[N+]([O-])c1c(Br)c[n+]([O-])c2ccccc12 : Toxic

Activity for O=[N+]([O-])c1ccc2c(c1)c(NO)cc[n+]2[O-] is Toxic

Activity in this record for CC(C)(C)c1ccc2c(c1)c(NO)cc[n+]2[O-] : Non-toxic

====

assay: Lipophilicy, log P of the compound; format: physicochemical; conditions: octanol/water
Reported logP values for the following molecules.

Briefly, logP measured for Cc1ccc2c(c1)c([N+](=O)[O-])cc[n+]2[O-] : 1.24

# molecule O=[N+]([O-])c1ccc2c(c1)c([N+](=O)[O-])cc[n+]2[O-] ; its logP = 0.9

GET /value?item= CCCCc1ccc2c(c1)c(NO)cc[n+]2[O-] &field=logP returns 2.1

logP reading for Cc1cccc2c1c([N+](=O)[O-])cc[n+]2[O-] : 1.25

logP recorded for this molecule, Cc1cccc2c([N+](=O)[O-])cc[n+]([O-])c12 , is 1.48

Sure, the documented logP for O=[N+]([O-])c1cc[n+]([O-])c2ccc(Cl)cc12 is 1.4
